Target: T1, recombinant human DLL4 (Cat# 1506-D4/CF, R&D Systems) (human, UniProt Q9NR61 27-529)
T1 construct: Bought protein; also called hDLL4; rHuman DLL4
Test: ELISA, DLL4 coated, Fab 0.41 nM
Result type: ELISA absorbance at 450 nm

* Fab VH5-51_IGHD5-18*01>3_IGHJ4*01 G100K/G104T G24T/S28R/G35V & V3-4_IGLJ1*01 (Fab, V domains shown, Fab made in E. coli: VH on CH1 with His6 and Flag tags (Plasmid A), VL on lambda CL (Plasmid E); also called H: KT TRV & L: wt) VH: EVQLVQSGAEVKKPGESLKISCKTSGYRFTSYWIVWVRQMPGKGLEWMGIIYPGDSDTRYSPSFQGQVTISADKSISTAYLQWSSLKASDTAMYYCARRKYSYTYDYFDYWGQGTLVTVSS VL: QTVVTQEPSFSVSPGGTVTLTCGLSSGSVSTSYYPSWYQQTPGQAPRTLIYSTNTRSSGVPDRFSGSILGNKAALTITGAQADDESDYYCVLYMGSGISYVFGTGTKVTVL | 0.01 A450
